- test_protocol: gradient 5% acetonitrile 3 min, to 50% in 2 min, to 85% in 15 min, held 3 min, 100 µL/min
- recorded_conditions: column: Zorbax Extend-C18 2.1 x 50 mm; eluents: water / acetonitrile, 0.1% formic acid
measured_endpoint: RP-LC retention time (s)

# molecule, RP-LC retention time [s]
rows = [
    ("C[C@H]1CN(C(=O)NC2CCCCC2)C[C@@H]1c1nc(-c2cccnc2)no1", 784),
    ("CCOC(=O)COc1cc(-c2ccc(C)cc2)nc2ccc(NC(=O)C3CC3)cc12", 776),
    ("COc1ccc(-c2ccc(SCC(=O)Nc3cccc([N+](=O)[O-])c3)nn2)cc1OC", 793),
    ("CCC(=O)N1CCc2cc(N3CC(C(=O)Nc4cc(C)ccc4OC)CC3=O)ccc21 (configuration not stated)", 794),
    ("CCc1cc(=O)n(CC(=O)Nc2ccc(C)cc2)c(N2CCOCC2)n1", 612),
    ("O=C(Nc1cccc(F)c1)C1CCc2nc(N3CCOCC3)ncc2C1 (configuration not stated)", 778),
    ("CC(=O)N1CCc2cc(-c3ccc(C(=O)N4CCN(c5ccccn5)CC4)cc3)ccc21", 611),
]

Source listed as the METLIN SMRT retention time set (Domingo-Almenara et al. 2019).
